# system.tested: Cin5 (UniProt P40917)
# Sequence: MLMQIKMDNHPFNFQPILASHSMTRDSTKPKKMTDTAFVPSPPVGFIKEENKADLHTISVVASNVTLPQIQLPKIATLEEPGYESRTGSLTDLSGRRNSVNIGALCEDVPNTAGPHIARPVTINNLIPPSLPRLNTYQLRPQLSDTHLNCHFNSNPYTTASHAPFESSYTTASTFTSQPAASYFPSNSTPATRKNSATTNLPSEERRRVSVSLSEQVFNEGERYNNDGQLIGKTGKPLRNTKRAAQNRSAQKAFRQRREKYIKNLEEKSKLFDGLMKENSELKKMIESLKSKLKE
# experimental.details: PBM E-score (8-mer binding enrichment) (E-score (-0.5 to 0.5)); higher = stronger / more preferred TF binding
# condition.set: protein concentration: 100 nM; construct: GST-full length
The full ranking holds about 33,000 sequences; the median of “E-score (-0.5 to 0.5)” is about -0.0059, and the highest 2% start at about 0.26. The full list was thinned out, with the highest values kept by preference.
We use 0.1 as the dividing line for PBM E-score: on or above the line is true (1), below is false (0).

In plain terms: is recorded PBM E-score at least 0.1 for ATACATAT ?
true (1)

In plain terms: is recorded PBM E-score at least 0.1 for AGACATAT ?
false (0)

In plain terms: is recorded PBM E-score at least 0.1 for CTGATTTC ?
false (0)

In plain terms: is recorded PBM E-score at least 0.1 for AGGCGGCG ?
false (0)

In plain terms: is recorded PBM E-score at least 0.1 for AGGCCAGA ?
false (0)

In plain terms: is recorded PBM E-score at least 0.1 for ATATATAA ?
true (1)

In plain terms: is recorded PBM E-score at least 0.1 for CTGATTAA ?
true (1)

In plain terms: is recorded PBM E-score at least 0.1 for CCTACCAC ?
false (0)

In plain terms: is recorded PBM E-score at least 0.1 for ATATAGTA ?
true (1)

In plain terms: is recorded PBM E-score at least 0.1 for ATGTAAGC ?
true (1)

In plain terms: is recorded PBM E-score at least 0.1 for GTGCCAAC ?
false (0)

In plain terms: is recorded PBM E-score at least 0.1 for CGCCAAAC ?
false (0)

In plain terms: is recorded PBM E-score at least 0.1 for TCCCTTAA ?
false (0)

In plain terms: is recorded PBM E-score at least 0.1 for CCATATGA ?
false (0)

In plain terms: is recorded PBM E-score at least 0.1 for CAAAGTCA ?
true (1)

In plain terms: is recorded PBM E-score at least 0.1 for AGCCTAAA ?
false (0)

In plain terms: is recorded PBM E-score at least 0.1 for CCTAGGTA ?
false (0)

In plain terms: is recorded PBM E-score at least 0.1 for ACAGGGAT ?
false (0)

In plain terms: is recorded PBM E-score at least 0.1 for ATGATTAA ?
true (1)

In plain terms: is recorded PBM E-score at least 0.1 for CTGATTAC ?
true (1)

In plain terms: is recorded PBM E-score at least 0.1 for CTAAGAAA ?
false (0)

In plain terms: is recorded PBM E-score at least 0.1 for ATATAGTC ?
true (1)

In plain terms: is recorded PBM E-score at least 0.1 for AGATATGC ?
false (0)

In plain terms: is recorded PBM E-score at least 0.1 for ACTGATAC ?
false (0)

In plain terms: is recorded PBM E-score at least 0.1 for ATGATTAC ?
true (1)

In plain terms: is recorded PBM E-score at least 0.1 for CCGGGGCG ?
false (0)

In plain terms: is recorded PBM E-score at least 0.1 for ATATATAC ?
true (1)

In plain terms: is recorded PBM E-score at least 0.1 for ATACATAA ?
true (1)

In plain terms: is recorded PBM E-score at least 0.1 for ATGCTTCA ?
false (0)

In plain terms: is recorded PBM E-score at least 0.1 for ATACATAC ?
false (0)

In plain terms: is recorded PBM E-score at least 0.1 for AAATATGA ?
true (1)

In plain terms: is recorded PBM E-score at least 0.1 for ATACATAG ?
true (1)

In plain terms: is recorded PBM E-score at least 0.1 for AGATATAG ?
true (1)

In plain terms: is recorded PBM E-score at least 0.1 for ATATATAT ?
true (1)

In plain terms: is recorded PBM E-score at least 0.1 for CGGACCCC ?
false (0)
